I'd appreciate it if you could supply growth inhibition values for the items below.
- experimental.details: NCI Yeast Anticancer Drug Screen. Data for the mlh1 rad18 strain (AID 175)
- setup.conditions: S. cerevisiae mlh1 rad18 strain growth inhibition; at 50.0 µM; hits give high values
The panel holds about 79,000 compounds, 15% with a hit somewhere; the sample as a whole holds those more often.
State just the number; it will be interpreted in %.

IN: Can you look up the measured growth inhibition of CCOc1cc2c(cc1O)/C(=N/NS(=O)(=O)c1ccc(C)cc1)C[C@@H]1[C@@H]2CC[C@]2(C)[C@@H](O)CC[C@@H]12 for me?
OUT: 4.4

IN: Also, O=C(CN1C(=O)c2ccccc2C1=O)c1ccc(Br)cc1 please.
OUT: 12.9

IN: Now the same for Cc1ccc(C)c(NC(=O)/C(=N\N)C(c2cnc3ccc([N+](=O)[O-])cc3n2)[N+](=O)[O-])c1 (centres undefined)
OUT: 28.6

IN: Also, CCC(C)NCCNCCNC(C)CC (centres undefined) please.
OUT: 0.8

IN: Next entry: Cc1ccc(NC(=O)/C(=N\NC(N)=O)c2c(O)c3ccccc3[nH]c2=O)cc1
OUT: -33

IN: // same read-out, input: S=C=NC1CCCCCCCCCCC1
OUT: 36.6

IN: Param item: CN1C(=S)c2ccccc2S1(=O)=O
OUT: 24.2

IN: Similarly, Clc1ccc(C2NN=C3c4ccccc4OCC32)cc1 (centres undefined) ?
OUT: 17.2

IN: Moving on to the next molecule: Cc1n[nH]c(=O)n(/N=C\c2c[nH]c3ccccc23)c1=O
OUT: -1.55

IN: Moving on to the next molecule: Cc1ccc(OC2CC(n3cnc4ncnc(Cl)c43)OC2Oc2ccc(C)cc2)cc1 (centres undefined)
OUT: -33.8

IN: Next: N#Cc1n[nH]n(-c2ccccc2)c1=O
OUT: -13.7

IN: // same read-out, input: COC(=O)c1ccc(NC(=O)O/N=C(\Cl)C(C)C)cc1
OUT: 0.75

IN: Moving on to CC(=N\N=C\c1ccccn1)/C(C)=N/N=C/c1ccccn1
OUT: -53.3

IN: Query COC(=O)C(C)CN1CC(C)OC(C)C1 (centres undefined) next
OUT: -13.2

IN: Now this one: CC1=C2NCN(C)N=C2C(C#N)(C#N)C1(C#N)C#N
OUT: -13.1

IN: Can you check CCOC(=O)c1nc2cc(C)c(C)cc2[nH]c1=O next?
OUT: -1.85

IN: What about COc1cc(-c2cc(=O)c3c(O)cc(O)cc3o2)cc(OC)c1OC ?
OUT: 40

IN: Also need O=C1c2ccccc2-c2c1c1ccccc1c(=O)n2-c1cccnc1 , thanks.
OUT: -9.05

IN: Repeat for the following molecule: C=CC1=C(C)C2=NC1=CC1=NC(=C(CC)/C1=C\O)C=C1N=C3C(=C1C)C(=O)[C@H](C(=O)OC)C3=C1NC(=C2)[C@@H](C)[C@@H]1CCC(=O)O
OUT: -15.9
